# credit: patent US7759345B2

The following molecules have recorded Toxicity Data Skeletal on Skeletal.
readout: Toxicity Data Skeletal

C=CCOC(=O)Oc1c(C)c2c(c3c1[C@H]1SC[C@]4(NCCc5cc(O)c(OC)cc54)C(=O)OC[C@@H]3N3C1[C@H]1c4c(cc(C)c(OC)c4O)C[C@@H]([C@@H]3O)N1C)OCO2 (some centres unmarked)	1.47E-08
CCCC(=O)Oc1c(C)c2c(c3c1[C@H]1SC[C@]4(NCCc5cc(O)c(OC)cc54)C(=O)OC[C@@H]3N3C1[C@H]1c4c(cc(C)c(OC)c4O)C[C@@H]([C@@H]3O)N1C)OCO2 (some centres unmarked)	2.53E-06
C=CCOc1c(C)c2c(c3c1[C@H]1SC[C@]4(NCCc5cc(O)c(OC)cc54)C(=O)OC[C@@H]3N3C1[C@H]1c4c(cc(C)c(OC)c4O)C[C@@H]([C@@H]3O)N1C)OCO2 (some centres unmarked)	2.67E-08
CCCCCCCC(=O)Oc1cc2c(cc1OC)[C@@]1(CS[C@@H]3c4c(OC(C)=O)c(C)c5c(c4[C@H](COC1=O)N1C3[C@@H]3N[C@@H](Cc4cc(C)c(OC)c(O)c43)[C@@H]1O)OCO5)NCC2 (some centres unmarked)	1.72E-07
COc1cc2c(cc1OC)[C@@]1(CS[C@@H]3c4c(OC(C)=O)c(C)c5c(c4[C@H](COC1=O)N1C3[C@H]3c4c(cc(C)c(OC)c4O)C[C@@H]([C@@H]1O)N3C)OCO5)NCC2 (some centres unmarked)	2.37E-08
COc1cc2c(cc1OC(=O)OC(C)(C)C)CCN[C@]21CS[C@@H]2c3c(OC(=O)OC(C)(C)C)c(C)c4c(c3[C@H](COC1=O)N1C2[C@H]2c3c(cc(C)c(OC)c3OC(=O)OC(C)(C)C)C[C@@H]([C@@H]1O)N2C)OCO4 (some centres unmarked)	9.80E-07
C=CCOc1cc2c(cc1OC)[C@@]1(CS[C@@H]3c4c(OC(C)=O)c(C)c5c(c4[C@H](COC1=O)N1C3[C@H]3c4c(cc(C)c(OC)c4O)C[C@@H]([C@@H]1O)N3C)OCO5)NCC2 (some centres unmarked)	3.67E-08
COc1cc2c(cc1OC(=O)[C@H](C)NC(=O)OC(C)(C)C)CCN[C@]21CS[C@@H]2c3c(OC(C)=O)c(C)c4c(c3[C@H](COC1=O)N1C2[C@H]2c3c(cc(C)c(OC)c3O)C[C@@H]([C@@H]1O)N2C)OCO4 (some centres unmarked)	2.75E-09
COc1cc2c(cc1OC(=O)OCc1ccccc1)CCN[C@]21CS[C@@H]2c3c(OC(C)=O)c(C)c4c(c3[C@H](COC1=O)N1C2[C@H]2c3c(cc(C)c(OC)c3O)C[C@@H]([C@@H]1O)N2C)OCO4 (some centres unmarked)	3.77E-09
COc1cc2c(cc1OC(=O)C(F)(F)F)CCN[C@]21CS[C@@H]2c3c(OC(C)=O)c(C)c4c(c3[C@H](COC1=O)N1C2[C@H]2c3c(cc(C)c(OC)c3O)C[C@@H]([C@@H]1O)N2C)OCO4 (some centres unmarked)	4.10E-07
COc1cc2c(cc1O)CCN[C@]21CS[C@@H]2c3c(OC(C)=O)c(C)c4c(c3[C@H](COC1=O)N1C2[C@H]2c3c(cc(C)c(OC)c3OC(=O)OC(C)(C)C)C[C@@H]([C@@H]1O)N2C)OCO4 (some centres unmarked)	4.62E-09
COc1cc2c(cc1OC(=O)Cc1cc(=O)oc3cc(N(C)C)ccc13)CCN[C@]21CS[C@@H]2c3c(OC(C)=O)c(C)c4c(c3[C@H](COC1=O)N1C2[C@H]2c3c(cc(C)c(OC)c3OC(=O)Cc3cc(=O)oc5cc(N(C)C)ccc35)C[C@@H]([C@@H]1O)N2C)OCO4 (some centres unmarked) [Compound 77]	2.20E-09
CCCCCCCC(=O)Oc1cc2c(cc1OC)[C@@]1(CS[C@@H]3c4c(OC(C)=O)c(C)c5c(c4[C@H](COC1=O)N1C3[C@H]3c4c(cc(C)c(OC)c4O)C[C@@H]([C@@H]1O)N3C)OCO5)NCC2 (some centres unmarked)	1.46E-07
COc1cc2c(cc1O)CCN[C@]21CS[C@@H]2c3c(OC)c(C)c4c(c3[C@H](COC1=O)N1C2[C@H]2c3c(cc(C)c(OC)c3O)C[C@@H]([C@@H]1O)N2C)OCO4 (some centres unmarked)	1.49E-08
COc1cc2c(cc1O)CCN[C@]21CS[C@@H]2c3c(OC(=O)CCCCC4SCC5NC(=O)NC54)c(C)c4c(c3[C@H](COC1=O)N1C2[C@H]2c3c(cc(C)c(OC)c3OC(=O)CCCCC3SCC5NC(=O)NC53)C[C@@H]([C@@H]1O)N2C)OCO4 (some centres unmarked)	8.53E-07
COc1cc2c(cc1OC(=O)/C=C/c1ccccc1)CCN[C@]21CS[C@@H]2c3c(OC(C)=O)c(C)c4c(c3[C@H](COC1=O)N1C2[C@@H]2N[C@@H](Cc3cc(C)c(OC)c(O)c32)[C@@H]1O)OCO4 (some centres unmarked)	2.21E-08
COc1cc2c(cc1OC(=O)OC(C)(C)C)CCN[C@]21CS[C@@H]2c3c(OC(=O)[C@H](C)NC(=O)OC(C)(C)C)c(C)c4c(c3[C@H](COC1=O)N1C2[C@H]2c3c(cc(C)c(OC)c3O)C[C@@H]([C@@H]1O)N2C)OCO4 (some centres unmarked)	2.12E-07

====

# Tested on: A-498
# protocol notes: Inhibition of cells growth by colorimetric assay (SRB), A-498
# Format: cell-based
# measurement setup: Homo sapiens, A498, 48 h, read-out: A-498 LC50
readout: LC50 (nM)

COc1cc2c(cc1O)CCN[C@]21CS[C@@H]2c3c(OC(C)=O)c(C)c4c(c3[C@H](COC1=O)N1C2[C@H]2c3c(cc(C)c(OC)c3OC(=O)OC(C)(C)C)C[C@@H]([C@@H]1O)N2C)OCO4 (stereo partly drawn)	9.28
COc1cc2c(cc1OC(=O)OC(C)(C)C)CCN[C@]21CS[C@@H]2c3c(OC(=O)OC(C)(C)C)c(C)c4c(c3[C@H](COC1=O)N1C2[C@H]2c3c(cc(C)c(OC)c3OC(=O)OC(C)(C)C)C[C@@H]([C@@H]1O)N2C)OCO4 (stereo partly drawn)	9.8
COc1cc2c(cc1O)CCN(C)[C@]21CS[C@@H]2c3c(OC(C)=O)c(C)c4c(c3[C@H](COC1=O)N1C2[C@@H]2N[C@@H](Cc3cc(C)c(OC)c(O)c32)[C@@H]1C#N)OCO4 (stereo partly drawn)	1.3
COc1cc2c(cc1O)CCN[C@]21CS[C@@H]2c3c(OC)c(C)c4c(c3[C@H](COC1=O)N1C2[C@H]2c3c(cc(C)c(OC)c3O)C[C@@H]([C@@H]1O)N2C)OCO4 (stereo partly drawn)	5.45
COc1cc2c(cc1OC(=O)OC(C)(C)C)CCN[C@]21CS[C@@H]2c3c(OC(=O)OC(C)(C)C)c(C)c4c(c3[C@H](COC1=O)N1C2[C@H]2c3c(cc(C)c(OC)c3O)C[C@@H]([C@@H]1O)N2C)OCO4 (stereo partly drawn)	21.7
COc1cc2c(cc1OC(=O)/C=C/c1ccccc1)CCN[C@]21CS[C@@H]2c3c(OC(C)=O)c(C)c4c(c3[C@H](COC1=O)N1C2[C@@H]2N[C@@H](Cc3cc(C)c(OC)c(O)c32)[C@@H]1O)OCO4 (stereo partly drawn)	1140

====

Attribute: MEL-28 TGI
# Test system: SK-MEL-28
# protocol notes: Inhibition of cells growth by colorimetric assay (SRB), SK-MEL-28
# Assay type: cell-based
# measurement setup: MEL-28; SRB, 48 hours exposure
readout: MEL-28 TGI

COc1cc2c(cc1OC(=O)Cc1cc(=O)oc3cc(N(C)C)ccc13)CCN[C@]21CS[C@@H]2c3c(OC(C)=O)c(C)c4c(c3[C@H](COC1=O)N1C2[C@H]2c3c(cc(C)c(OC)c3OC(=O)Cc3cc(=O)oc5cc(N(C)C)ccc35)C[C@@H]([C@@H]1O)N2C)OCO4 (stereo partly drawn) [Compound 77]	5.06E-10
C=COC(=O)Oc1cc2c(cc1OC)[C@@]1(CS[C@@H]3c4c(OC(C)=O)c(C)c5c(c4[C@H](COC1=O)N1C3[C@H]3c4c(cc(C)c(OC)c4O)C[C@@H]([C@@H]1O)N3C)OCO5)N(C(=O)OC=C)CC2 (stereo partly drawn) [Compound 100]	5.04E-08
COc1cc2c(cc1O)CCN(C)[C@]21CS[C@@H]2c3c(OC(C)=O)c(C)c4c(c3[C@H](COC1=O)N1C2[C@H]2c3c(cc(C)c(OC)c3O)C[C@@H]([C@@H]1O)N2C)OCO4 (stereo partly drawn) [Compound 93]	6.24E-10
COc1cc2c(cc1O)CCN[C@]21CS[C@@H]2c3c(OC(C)=O)c(C)c4c(c3[C@H](COC1=O)N1C2[C@H]2c3c(cc(C)c(OC)c3OC(=O)OC(C)(C)C)C[C@@H]([C@@H]1O)N2C)OCO4 (stereo partly drawn) [Compound 97]	9.28E-10
C=COC(=O)N1CCc2cc(O)c(OC)cc2[C@@]12CS[C@@H]1c3c(OC(C)=O)c(C)c4c(c3[C@H](COC2=O)N2C1[C@H]1c3c(cc(C)c(OC)c3O)C[C@@H]([C@@H]2O)N1C)OCO4 (stereo partly drawn) [Compound 95]	4.58E-08
COc1cc2c(cc1O)CCN[C@]21CS[C@@H]2c3c(OC(C)=O)c(C)c4c(c3[C@H](COC1=O)N1C2[C@H]2c3c(cc(C)c(OC)c3OC(C)C)C[C@@H]([C@@H]1O)N2C)OCO4 (stereo partly drawn) [Compound 102]	6.89E-08
COc1cc2c(cc1OC(=O)Cc1cc(=O)oc3cc(N(C)C)ccc13)CCN[C@]21CS[C@@H]2c3c(OC(C)=O)c(C)c4c(c3[C@H](COC1=O)N1C2[C@H]2c3c(cc(C)c(OC)c3OC(=O)Cc3cc(=O)oc5cc(N(C)C)ccc35)C[C@@H]([C@@H]1O)N2C)OCO4 (stereo partly drawn) [Compound 78]	4.48E-09
COc1cc2c(cc1OC)[C@@]1(CS[C@@H]3c4c(OC(C)=O)c(C)c5c(c4[C@H](COC1=O)N1C3[C@H]3c4c(cc(C)c(OC)c4OC)C[C@@H]([C@@H]1O)N3C)OCO5)NCC2 (stereo partly drawn) [Compound 87]	4.57E-08
COC1=C(C)C(=O)C2=C(C1=O)[C@@H]1C3[C@@H]4SC[C@]5(NCCc6cc(O)c(OC)cc65)C(=O)OC[C@@H](c5c6c(c(C)c(OC(C)=O)c54)OCO6)N3[C@@H](O)[C@H](C2)N1C (stereo partly drawn) [Compound 101]	7.02E-09
